test: Blood concentration and organ concentration after oral administration (absorption test groups); type: in vivo; details: male, Crj: CD IGS, rat, lung/serum, fasting rats, 20 mg/kg, lung, read-out: AUC0-4h tissue/serum ratio Lung
quantity_measured: Kp
Reply with just the number.

>>> assay_value("Cc1c(N2CC[C@@H](C3(N)CC3)C2)c(F)cc2c(=O)c(C(=O)O)cn([C@@H]3C[C@@H]3F)c12 [Reference drug 1, reference compound]")
5.3

Turning now to a further record.
Request: Looking for the measured Kp of `Cc1c(N2CC[C@@H](C3(N)CC3)C2)ccc2c(=O)c(C(=O)O)cn([C@@H]3C[C@@H]3F)c12` , can you help?
Result: 10

* * *

tested on: Str. pyogenes, G-36
Returns: string. Value is 1 (yes) if measured MIC is below 10 ng/mL, and 0 (no) if it is greater than or equal to it.

Illustrative cases are given below, each with its answer.
>>> cat("C[C@H]1COc2c(N3CCN(C)CC3)c(F)cc3c(=O)c(C(=O)O)cn1c23 [LVFX, levofloxacin, reference compound]")
"0 (no)"
>>> cat("Cc1c(N2CC[C@@H](C3(N)CC3)C2)ccc2c(=O)c(C(=O)O)cn(C3CC3)c12")
"1 (yes)"
>>> cat("COc1c(N2CC[C@@H](C3(N)CC3)C2)ccc2c(=O)c(C(=O)O)cn([C@@H]3C[C@@H]3F)c12")
"1 (yes)"
>>> cat("CCNC1([C@@H]2CCN(c3ccc4c(=O)c(C(=O)O)cn([C@@H]5C[C@@H]5F)c4c3C)C2)CC1")
"1 (yes)"
>>> cat("Cc1c(N2CC[C@@H](C3(N)CC3)C2)ccc2c(=O)c(C(=O)O)cn([C@@H]3C[C@@H]3F)c12")
"1 (yes)"
>>> cat("CNC1([C@@H]2CCN(c3ccc4c(=O)c(C(=O)O)cn(C5CC5)c4c3C)C2)CC1")
"1 (yes)"

Request: In plain terms, does O=C(O)c1cn(C2CC2)c2cc(N3CCNCC3)c(F)cc2c1=O [CPFX, ciprofloxacin, reference compound] come in under 10 ng/mL for MIC?
Result: 0 (no)

Request: Consider `CNC1([C@@H]2CCN(c3ccc4c(=O)c(C(=O)O)cn([C@@H]5C[C@@H]5F)c4c3OC)C2)CC1` . Does its MIC lie strictly below 10 ng/mL?
Result: 0 (no)

Request: Record Cc1c(N2CC[C@@H](C3(N)CC3)C2)c(F)cc2c(=O)c(C(=O)O)cn([C@@H]3C[C@@H]3F)c12 [Reference drug 1, reference compound] : is its MIC strictly below 10 ng/mL?
Result: 1 (yes)

Request: Hello, I'm reviewing records and need to know if MIC of `CNC1([C@@H]2CCN(c3ccc4c(=O)c(C(=O)O)cn([C@@H]5C[C@@H]5F)c4c3C)C2)CC1` is below 10 ng/mL. Could you check?
Result: 1 (yes)

* * *

melting point values by entry
Structures can show the parent of a compound that is named as a salt.

Consider the worked cases shown below.
>>> assay_value("C[C@H]1COc2c(N3CC[C@@H](C4(N)CC4)C3)ccc3c(=O)c(C(=O)O)cn1c23 (as salt: salt) [Example 9]")
"249 to 252 °C (dec.)"
>>> assay_value("CCNC1([C@@H]2CCN(c3ccc4c(=O)c(C(=O)O)cn([C@@H]5C[C@@H]5F)c4c3C)C2)CC1 [Example 14]")
"191 to 194 °C"
>>> assay_value("Cc1c(N2CC[C@@H](C3(N)CC3)C2)ccc2c(=O)c(C(=O)O)cn([C@@H]3C[C@@H]3F)c12 (as salt: HCl) (hydrate or solvate) [Example 1]")
"228 to 230 °C"
>>> assay_value("Cc1c(N2CC[C@@H](C3(N)CC3)C2)cc(O)c2c(=O)c(C(=O)O)cn([C@@H]3C[C@@H]3F)c12 [Example 17]")
"203 to 206 °C"
>>> assay_value("COc1c(N2CC[C@@H](C3(N)CCC3)C2)ccc2c(=O)c(C(=O)O)cn([C@@H]3C[C@@H]3F)c12 (hydrate or solvate) [Example 19]")
"174 °C"
>>> assay_value("NC1([C@@H]2CCN(c3ccc4c(=O)c(C(=O)O)cn([C@@H]5C[C@@H]5F)c4c3)C2)CC1 [Example 5]")
"251 to 253 °C"

Request: Reported melting point for Cc1c(N2CC[C@@H](C3(N)CC3)C2)cc(N)c2c(=O)c(C(=O)O)cn([C@@H]3C[C@@H]3F)c12 [Example 7] : what is it?
Result: 240 to 242 °C (dec.)

Request: Any idea what melting point was measured for COc1c(N2CC[C@@H](C3(N)CC3)C2)cc(N)c2c(=O)c(C(=O)O)cn([C@@H]3C[C@@H]3F)c12 [Example 8] ?
Result: 172 to 178 °C (dec.)

Request: I would be grateful if you could share the reported melting point for N#Cc1c(N2CC[C@@H](C3(N)CC3)C2)ccc2c(=O)c(C(=O)O)cn([C@@H]3C[C@@H]3F)c12 [Example 18] .
Result: 138 to 140 °C

Request: Look up melting point for this molecule: Cc1c(N2CC[C@@H](C3(N)CC3)C2)ccc2c(=O)c(C(=O)O)cn(C3CC3)c12 [Example 3]
Result: 230 to 233 °C

Request: Item under review: CNC1([C@@H]2CCN(c3ccc4c(=O)c(C(=O)O)cn([C@@H]5C[C@@H]5F)c4c3C)C2)CC1 [Example 10] . Reported melting point?
Result: 223 to 224 °C

Request: Reported melting point, molecule NC1([C@@H]2CCN(c3ccc4c(=O)c(C(=O)O)cn([C@@H]5C[C@@H]5F)c4c3Cl)C2)CC1 [Example 16] : ____
Result: 128 to 130 °C

Request: Item under review: NC1([C@@H]2CCN(c3ccc4c(=O)c(C(=O)O)cn([C@@H]5C[C@@H]5F)c4n3)C2)CC1 [Example 4] . Reported melting point?
Result: 216 to 218 °C

Request: Requested field: melting point. Item: CNC1([C@@H]2CCN(c3ccc4c(=O)c(C(=O)O)cn5c4c3OC[C@@H]5C)C2)CC1 [Example 13]
Result: 227 to 229 °C
